EXPERIMENTAL_TARGET: T1, apical domain of human CD71 (human, UniProt P02786 189-383, limits assumed)
T1 construct: domain: apical domain; Screen 4 panned on human apical domains, the ELISA text says only 'apical domain'
T1 sequence (P02786 189-383 limits assumed): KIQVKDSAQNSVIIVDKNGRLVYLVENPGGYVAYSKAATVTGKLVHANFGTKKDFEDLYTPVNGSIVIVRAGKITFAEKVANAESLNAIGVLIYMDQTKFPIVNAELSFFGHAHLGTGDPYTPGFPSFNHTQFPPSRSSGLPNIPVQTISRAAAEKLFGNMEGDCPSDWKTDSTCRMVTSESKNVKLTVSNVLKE
TEST: primary ELISA; note: test concentration or dose not given here
PROPERTY_LABEL: RLU

Worked cases, RLU given:
BINDER	RLU
CD71-binding FN3 domain of SEQ ID NO: 501 (designed binder) MLPAPKNLVVSRVTEDSARLSWTAPDAAFDSFFIGYLEPQPPGEAISLLVPGSERSYDLTGLKPGTEYNVTIQGVKGGFPSVPLSAIFTT	4.88e+06 RLU
CD71-binding FN3 domain of SEQ ID NO: 471 (designed binder) MLPAPKNLVVSRVTEDSARLSWTAPDAAFDSFTIWYYESPTGGEAIVLTVPGSERSYDLTGLKPGTEYMVFIQGVKGGCFSTPLYAIFTT	3.88e+06 RLU
CD71-binding FN3 domain of SEQ ID NO: 465 (designed binder) MLPAPKNLVVSRVTEDSARLSWTAPDAAFDSFFIGYLEPQPPGEAIDLYVPGSERSYDLTGLKPGTEYNVTIQGVKGGFPSEPLWADFTT	4.15e+06 RLU
CD71-binding FN3 domain of SEQ ID NO: 484 (designed binder) MLPAPKNLVVSRVTEDSARLSWTAPDAAFDSFEIAYQELSLWGEAIVLTVPGSERSYDLTGLKPGTEYYVHIGGVKGGIWSSPLSAISTT	4.69e+06 RLU

Report RLU, nothing else, for this binder: CD71-binding FN3 domain of SEQ ID NO: 498 (designed binder) MLPAPKNLVVSRVTEDSARLSWTAPDAAFDSFFIGYLEPQPPGEAIILWVPGSERSYDLTGLKPGTEYNVTIQGVKGGFPSIPLIAVFTT
5.67e+06 RLU

Report RLU, nothing else, for this binder: CD71-binding FN3 domain of SEQ ID NO: 446 (designed binder) MLPAPKNLVVSRVTEDSARLSWTAPDAAFDSFFIGYLEPQPPGEAIQLFVPGSERSYDLTGLKPGTEYNVTIQGVKGGFPSLPLIAYFTT
5.51e+06 RLU

Report RLU, nothing else, for this binder: CD71-binding FN3 domain of SEQ ID NO: 533 (designed binder) MLPAPKNLVVSRVTEDSARLSWTAPDAAFDSFFIGYLEPQPPGEAINLFVPGSERSYDLTGLKPGTEYNVTIQGVKGGFPSMPLSAIFTT
5.25e+06 RLU

Report RLU, nothing else, for this binder: CD71-binding FN3 domain of SEQ ID NO: 529 (designed binder) MLPAPKNLVVSRVTEDSARLSWTAPDAAFDSFFIGYLEPQPPGEAIDLYVPGSERSYDLTGLKPGTEYNVTIQGVKGGFPSLPLQAHFTT
3.24e+06 RLU
